- Tested on: MvaT
- Experiment Summary: PBM 8-mer E-score (mean of HK and ME arrays) (E-score (dimensionless, -0.5 to 0.5)); higher = stronger relative binding preference
Over roughly 33,000 sequences, “E-score (dimensionless, -0.5 to 0.5)” has its median near -0.058; the highest 2% begin near 0.35. For the sample, the highest values were picked, then their nearest neighbours and some sequences at random.
Mark NO for PBM 8-mer E-score values under 0.3, and YES for everything at or above.

Incoming: Determine whether this sequence has PBM 8-mer E-score no lower than 0.3: ATTTAAAT
Outgoing: YES

Incoming: Determine whether this sequence has PBM 8-mer E-score no lower than 0.3: ACCCAAAC
Outgoing: NO

Incoming: Determine whether this sequence has PBM 8-mer E-score no lower than 0.3: ATGTATTG
Outgoing: NO

Incoming: Determine whether this sequence has PBM 8-mer E-score no lower than 0.3: CTTTAAAG
Outgoing: NO

Incoming: Determine whether this sequence has PBM 8-mer E-score no lower than 0.3: GCGATATA
Outgoing: YES

Incoming: Determine whether this sequence has PBM 8-mer E-score no lower than 0.3: GCTTAAAC
Outgoing: NO

Incoming: Determine whether this sequence has PBM 8-mer E-score no lower than 0.3: ATGTATTC
Outgoing: NO

Incoming: Determine whether this sequence has PBM 8-mer E-score no lower than 0.3: TCAGCCCA
Outgoing: NO

Incoming: Determine whether this sequence has PBM 8-mer E-score no lower than 0.3: CTGTATTA
Outgoing: YES

Incoming: Determine whether this sequence has PBM 8-mer E-score no lower than 0.3: AGAATAGG
Outgoing: NO

New cases:
Incoming: Determine whether this sequence has PBM 8-mer E-score no lower than 0.3: ATTTAAAC
Outgoing: YES

Incoming: Determine whether this sequence has PBM 8-mer E-score no lower than 0.3: ATTTTAAG
Outgoing: NO

Incoming: Determine whether this sequence has PBM 8-mer E-score no lower than 0.3: GGGATATA
Outgoing: NO

Incoming: Determine whether this sequence has PBM 8-mer E-score no lower than 0.3: AGGCTTAG
Outgoing: NO

Incoming: Determine whether this sequence has PBM 8-mer E-score no lower than 0.3: GTGTATTA
Outgoing: NO

Incoming: Determine whether this sequence has PBM 8-mer E-score no lower than 0.3: GATATATA
Outgoing: YES

Incoming: Determine whether this sequence has PBM 8-mer E-score no lower than 0.3: GGTTAAAC
Outgoing: NO

Incoming: Determine whether this sequence has PBM 8-mer E-score no lower than 0.3: CTTTAAAC
Outgoing: NO

Incoming: Determine whether this sequence has PBM 8-mer E-score no lower than 0.3: ACGATATA
Outgoing: YES

Incoming: Determine whether this sequence has PBM 8-mer E-score no lower than 0.3: CTGTATTC
Outgoing: NO

Incoming: Determine whether this sequence has PBM 8-mer E-score no lower than 0.3: AGGAATGG
Outgoing: NO

----------
- Tested on: MvaT
- Experiment Summary: PBM 8-mer E-score (mean of HK and ME arrays) (E-score (dimensionless, -0.5 to 0.5)); higher = stronger relative binding preference
Over roughly 33,000 sequences, “E-score (dimensionless, -0.5 to 0.5)” has its median near -0.058; the highest 2% begin near 0.35. The entries come from a sample that favours the highest values as a whole.
Observation Type: PBM 8-mer E-score
The answer should be written as a number, with no unit following it.

// below: answered sequences
Incoming: Please report the recorded PBM 8-mer E-score for CACAGACG .
Outgoing: -0.11

Incoming: Please report the recorded PBM 8-mer E-score for ATCTATAG .
Outgoing: 0.146

Incoming: Please report the recorded PBM 8-mer E-score for CGCAACCC .
Outgoing: -0.0943

Incoming: Please report the recorded PBM 8-mer E-score for CGATACGC .
Outgoing: -0.172

Incoming: Please report the recorded PBM 8-mer E-score for ATATATAG .
Outgoing: 0.468

New cases:
Incoming: Please report the recorded PBM 8-mer E-score for ATGAAACA .
Outgoing: 0.181

Incoming: Please report the recorded PBM 8-mer E-score for ATACCCAG .
Outgoing: 0.103

Incoming: Please report the recorded PBM 8-mer E-score for CACTATAG .
Outgoing: 0.196

Incoming: Please report the recorded PBM 8-mer E-score for CTATATAG .
Outgoing: 0.388

Incoming: Please report the recorded PBM 8-mer E-score for CATAAGAA .
Outgoing: 0.126

----------
- System: MvaT
- Experiment Summary: PBM 8-mer E-score (mean of HK and ME arrays) (E-score (dimensionless, -0.5 to 0.5)); higher = stronger relative binding preference
In all, about 33,000 sequences were measured (“E-score (dimensionless, -0.5 to 0.5)”: median about -0.058, highest 2% from about 0.35 on). What follows is part of a selection rich in the highest values, with near analogues and random picks from the rest.
Observation Type: PBM 8-mer E-score
The answer should be written as a number, with no unit following it.

// below: answered sequences
Incoming: Please report the recorded PBM 8-mer E-score for CCTGTCCG .
Outgoing: -0.203

Incoming: Please report the recorded PBM 8-mer E-score for CGTAATAG .
Outgoing: 0.173

Incoming: Please report the recorded PBM 8-mer E-score for TAATAACA .
Outgoing: 0.379

Incoming: Please report the recorded PBM 8-mer E-score for GGCGTGGA .
Outgoing: -0.173

New cases:
Incoming: Please report the recorded PBM 8-mer E-score for CAATAATG .
Outgoing: 0.322

Incoming: Please report the recorded PBM 8-mer E-score for AAATAAGA .
Outgoing: 0.309

Incoming: Please report the recorded PBM 8-mer E-score for GGTAATAA .
Outgoing: 0.335

Incoming: Please report the recorded PBM 8-mer E-score for TGTAAAAA .
Outgoing: 0.208

Incoming: Please report the recorded PBM 8-mer E-score for CGTAATAA .
Outgoing: 0.398

Incoming: Please report the recorded PBM 8-mer E-score for GAATAAGA .
Outgoing: 0.201

Incoming: Please report the recorded PBM 8-mer E-score for CAATAACA .
Outgoing: 0.283

----------
Listed here are sequences together with their documented PBM 8-mer E-score.
- Test system: MvaT
- Experiment Summary: PBM 8-mer E-score (mean of HK and ME arrays) (E-score (dimensionless, -0.5 to 0.5)); higher = stronger relative binding preference
In all, about 33,000 sequences were measured (“E-score (dimensionless, -0.5 to 0.5)”: median about -0.058, highest 2% from about 0.35 on). Many of the other results were omitted from the sample, so the highest values are more common in it than they were.
The answer should be written as a number, with no unit following it.

// below: answered sequences
Incoming: Fill in the recorded PBM 8-mer E-score for this sequence, with MvaT as test system: AGATATAG
Outgoing: 0.208

Incoming: Fill in the recorded PBM 8-mer E-score for this sequence, with MvaT as test system: CTTATAGA
Outgoing: 0.0191

Incoming: Fill in the recorded PBM 8-mer E-score for this sequence, with MvaT as test system: AGGACGTA
Outgoing: -0.138

Incoming: Fill in the recorded PBM 8-mer E-score for this sequence, with MvaT as test system: ACAGGAAA
Outgoing: 0.0933

Incoming: Fill in the recorded PBM 8-mer E-score for this sequence, with MvaT as test system: CTGATAGC
Outgoing: -0.222

New cases:
Incoming: Fill in the recorded PBM 8-mer E-score for this sequence, with MvaT as test system: GGTGCGCA
Outgoing: -0.0657

Incoming: Fill in the recorded PBM 8-mer E-score for this sequence, with MvaT as test system: AATTTAGA
Outgoing: 0.183

Incoming: Fill in the recorded PBM 8-mer E-score for this sequence, with MvaT as test system: AGCAGGAA
Outgoing: -0.195

Incoming: Fill in the recorded PBM 8-mer E-score for this sequence, with MvaT as test system: GAGTACAC
Outgoing: -0.00583

Incoming: Fill in the recorded PBM 8-mer E-score for this sequence, with MvaT as test system: ATTATAGG
Outgoing: 0.304

Incoming: Fill in the recorded PBM 8-mer E-score for this sequence, with MvaT as test system: ATTATATG
Outgoing: 0.416

Incoming: Fill in the recorded PBM 8-mer E-score for this sequence, with MvaT as test system: GTATCTTA
Outgoing: 0.194

Incoming: Fill in the recorded PBM 8-mer E-score for this sequence, with MvaT as test system: CATTATCC
Outgoing: 0.235

Incoming: Fill in the recorded PBM 8-mer E-score for this sequence, with MvaT as test system: AAGGACCA
Outgoing: -0.154

Incoming: Fill in the recorded PBM 8-mer E-score for this sequence, with MvaT as test system: CCATCTGA
Outgoing: -0.117

Incoming: Fill in the recorded PBM 8-mer E-score for this sequence, with MvaT as test system: CAATATGG
Outgoing: 0.156

Incoming: Fill in the recorded PBM 8-mer E-score for this sequence, with MvaT as test system: AGTTTTAA
Outgoing: 0.259

Incoming: Fill in the recorded PBM 8-mer E-score for this sequence, with MvaT as test system: AGTTTAAC
Outgoing: 0.244

Incoming: Fill in the recorded PBM 8-mer E-score for this sequence, with MvaT as test system: TATTATCA
Outgoing: 0.404

Incoming: Fill in the recorded PBM 8-mer E-score for this sequence, with MvaT as test system: AGATCGAG
Outgoing: -0.129

Incoming: Fill in the recorded PBM 8-mer E-score for this sequence, with MvaT as test system: AGATATCA
Outgoing: 0.194

Incoming: Fill in the recorded PBM 8-mer E-score for this sequence, with MvaT as test system: CTATATTC
Outgoing: 0.204

Incoming: Fill in the recorded PBM 8-mer E-score for this sequence, with MvaT as test system: CTCCGCCA
Outgoing: -0.247
